Reference source: patent US20170050966A1

biological target: CYP2C19 (Homo sapiens, UniProt P33261); assay: in vitro; conditions: probe Mephenytoin
Sequence (P33261 whole entry): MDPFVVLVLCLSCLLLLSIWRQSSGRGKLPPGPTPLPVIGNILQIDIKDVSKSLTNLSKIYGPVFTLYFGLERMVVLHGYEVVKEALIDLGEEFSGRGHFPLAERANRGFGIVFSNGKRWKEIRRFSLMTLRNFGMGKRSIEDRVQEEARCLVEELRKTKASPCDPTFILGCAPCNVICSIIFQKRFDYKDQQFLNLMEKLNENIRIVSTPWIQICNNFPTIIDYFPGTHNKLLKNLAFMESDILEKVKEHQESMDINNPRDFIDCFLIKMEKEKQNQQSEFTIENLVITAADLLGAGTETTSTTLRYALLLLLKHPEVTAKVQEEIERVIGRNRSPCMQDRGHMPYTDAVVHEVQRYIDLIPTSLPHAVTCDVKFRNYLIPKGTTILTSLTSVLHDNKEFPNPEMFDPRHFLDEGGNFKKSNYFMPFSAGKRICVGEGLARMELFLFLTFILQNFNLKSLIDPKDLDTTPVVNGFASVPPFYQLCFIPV
READOUT NAME: inhibition at 10 µM (%)

(P) C[C@@H](C(=O)Nc1ccnc(-c2cnc(N3CCC[C@H]3C(F)(F)F)nc2)n1)n1cnc2c1c(=O)n(C)c(=O)n2C
(Q) COc1ccc2[nH]c([S+]([O-])Cc3ncc(C)c(OC)c3C)nc2c1 (centres unmarked) [Omeprazole, reference compound]
Which has the higher inhibition at 10 µM, P or Q ? Mark your selection by writing its label.
Q
(Q: 68.2%, P: 37.1%)

* * *

experiment: Metabolic stability in liver microsomes; assay type: in vitro ADME; conditions: dog liver microsomes, male; read-out: Male Half-Life
READOUT NAME: half-life at 1 μM (min)
API: value field is a number in min; no unit string.

So what does the record say about half-life at 1 μM for C[C@@H](C(=O)Nc1ccnc(-c2cnc(N3CCCC3(C)C)nc2)n1)n1cnc2c1c(=O)n(C)c(=O)n2C ?
10
